- System: OVCAR-3 ovarian
- Test: NCI-60 one-dose screen, 48 h (100 = growth as untreated, 0 = no growth, -100 = all killed)
- Recorded conditions: 10 µM unless noted
The panel holds about 83,000 compounds, 20% with a hit somewhere; the sample as a whole holds those more often. The source made the active and inactive calls. Rule for the calls: active = growth percent below 10; inactive = the rest.
growth for assorted compounds
Readout kind: growth

>>> experimental_value("COc1ccc(-c2n/c(=C\\c3c(O)[nH]c4ccc(OC)cc34)cc3c2=Nc2ccccc2-3)cc1")
"-57.5% (active)"
>>> experimental_value("CCOC(=O)N1CCN(CCCCOc2ccc(C(C)(C)CC)cc2)CC1")
"103% (inactive)"
>>> experimental_value("CCCCCCCN(CCCCCCC)C(=N)c1ccnc2ccccc12")
"-41.8% (active)"
